Tested on: CCRF-CEM
protocol details: NCI tumour cell line growth inhibition, 48 h
Calls of active or inactive are those of the source. No stated cut-off is given here; in the data, active = GI50 up to about 1.1 µM and inactive = higher.
measured attribute: GI50

# molecule, measured attribute, measured result
data = [
    ("COC(=O)c1cc(CC(C)C)c2c(c1)[nH]c1ccccc12", "GI50", "> 100 µM (inactive)"),
    ("N=C(N)NCC1CCCCCCN1 (configuration not stated)", "GI50", "> 100 µM (inactive)"),
    ("O=S(=O)(c1ccccc1)C1(CCC2OCCO2)C=CC2(CC1)OCCO2 (configuration not stated)", "GI50", "> 100 µM (inactive)"),
    ("COC(=O)C[C@H](COCc1ccccc1)NC(=O)C[C@H](COCc1ccccc1)NC(=O)C[C@H](COCc1ccccc1)NC(=O)OC(C)(C)C", "GI50", "> 100 µM (inactive)"),
    ("C=CCn1c2c(sc1=S)C(S)NC=N2 (configuration not stated)", "GI50", "95.9 µM (inactive)"),
    ("COc1ccc2[nH]c3c(c2c1)[C@H]1CCC(C(C)(C)C)C[C@H]1[C@H]1C(=O)N(c2ccccc2)C(=O)[C@@H]31 (some centres not stated)", "GI50", "18.9 µM (inactive)"),
    ("Cc1nn(C(=O)Cc2ccccc2)c2c1C(c1ccc([N+](=O)[O-])cc1)SC(=N)N2 (configuration not stated)", "GI50", "> 100 µM (inactive)"),
    ("O=c1[nH]c(=O)n([C@H]2CCCO2)cc1F", "GI50", "982 µM (inactive)"),
    ("Clc1cccc(N/N=N/c2ccc(-c3nc4ccccc4s3)cc2)c1", "GI50", "21 µM (inactive)"),
    ("COc1ccc(-c2cc(O)c3cc(Cl)ccc3n2)cc1", "GI50", "> 100 µM (inactive)"),
    ("CN(C)C(=O)N(CCCl)N=O", "GI50", "> 100 µM (inactive)"),
    ("N=c1oc2ccc(Cl)cc2cc1C(=O)NC1CCCCC1", "GI50", "33.7 µM (inactive)"),
    ("CCCSc1cc(Cl)c(C)cc1S(=O)(=O)n1ccnc1OCCCN(C)C", "GI50", "> 100 µM (inactive)"),
    ("CCOC(=O)/C(C(=O)Nc1cccc(Cl)c1)=C(/N)N1CCCC1", "GI50", "> 100 µM (inactive)"),
    ("c1ccc(/N=C2/SC(c3ccccc3)(c3ccccc3)c3ccccc32)cc1", "GI50", "> 100 µM (inactive)"),
    ("CCNc1cc2c3c(c1)CCCN3CCC2", "GI50", "2.38 µM (inactive)"),
    ("O=C1CC(c2ccccc2)Oc2ccccc21 (configuration not stated)", "GI50", "24.2 µM (inactive)"),
]

###

System: MCF7
protocol details: NCI tumour cell line growth inhibition, 48 h
Activity calls are given as the source filed them. Cut-off read from the data, not from the text of the source: active = GI50 up to about 1.1 µM and inactive = higher.
measured attribute: GI50

# compound, measured attribute, measured result
measured = [
    ("N=c1oc2cc(O)ccc2cc1C(=O)Nc1cccc2ccccc12", "GI50", "3.93 µM (inactive)"),
    ("O=C(CNC(=O)OCc1ccccc1)NCCCCC(NC(=O)OCc1ccccc1)C(=O)NC(CCCCNC(=O)CNC(=O)OCc1ccccc1)C(=O)OCc1ccccc1 (centres undefined)", "GI50", "> 62.5 µM (inactive)"),
    ("COC(=O)c1cc(/C=C/C(=O)Cc2ccccc2)cn1S(=O)(=O)c1ccccc1", "GI50", "> 100 µM (inactive)"),
    ("COc1ccc(-n2c3c(c4cc(O)ccc42)C(=O)c2ccccc2C3=O)cc1", "GI50", "10.7 µM (inactive)"),
    ("CCCSc1cc(Cl)c(C)cc1S(=O)(=O)n1ccnc1OCCCN(C)C", "GI50", "> 100 µM (inactive)"),
    ("CCOC(=O)/C(C(=O)Nc1cccc(Cl)c1)=C(/N)N1CCCC1", "GI50", "> 100 µM (inactive)"),
    ("COc1cc(/C=C2\\C[C@H]3[C@@H]4CC=C5C[C@@H](OC(C)=O)CC[C@]5(C)[C@H]4CC[C@]3(C)\\C2=N\\O)cc(OC)c1OC", "GI50", "4.2 µM (inactive)"),
    ("CN(C)C(=O)N(CCCl)N=O", "GI50", "> 100 µM (inactive)"),
    ("N=C(N)NCC1CCCCCCN1 (centres undefined)", "GI50", "> 100 µM (inactive)"),
    ("NC1Cc2ccccc2OC1=O (centres undefined)", "GI50", "> 100 µM (inactive)"),
    ("CC1OC(=O)C2CC3CCCCC3C(/C=C/C3CCCC(C)N3C)C12 (centres undefined)", "GI50", "90.8 µM (inactive)"),
    ("COc1cccc(C2SC(=N)Nc3c2c(C)nn3C(=O)c2ccccc2O)c1 (centres undefined)", "GI50", "> 3.11 µM (inactive)"),
    ("CC1(C)CC(=O)c2c(nc3ccc4ccccc4c3c2-c2ccc(NC(=O)CCCCCCCCC(=O)Nc3ccc(-c4c5c(nc6ccc7ccccc7c46)CC(C)(C)CC5=O)cc3)cc2)C1", "GI50", "> 100 µM (inactive)"),
    ("O=C(NNC(=O)c1ccncc1)c1ccncc1", "GI50", "> 100 µM (inactive)"),
    ("CC(Nc1cccc(Cl)c1)c1ccncc1 (centres undefined)", "GI50", "> 100 µM (inactive)"),
    ("O=C1CCC[C@H]2O[C@@H](COC(=O)c3ccccc3)C[C@H]2O1", "GI50", "> 100 µM (inactive)"),
    ("NC(=S)NC/C=C/Cl", "GI50", "> 100 µM (inactive)"),
    ("COC(=O)c1ccccc1CC1Cc2cc3c(cc2C1)CCC3", "GI50", "45.9 µM (inactive)"),
    ("COc1ccc2nc3cc(Cl)ccc3c(Nc3ccc(O)c(CN4CCN(C)CC4)c3)c2c1", "GI50", "1.64 µM (inactive)"),
]

###

System: OVCAR-4
protocol details: NCI tumour cell line growth inhibition, 48 h
The source made the active and inactive calls. No stated cut-off is given here; in the data, active = GI50 up to about 1.1 µM and inactive = higher.
Collected GI50 values appear next to each entry.
measured attribute: GI50

# compound, measured attribute, measured result
measured = [
    ("CCN(CC)CCN(C)CCc1ccc(Br)cc1", "GI50", "97.3 µM (inactive)"),
    ("CO/N=C1/C(n2[nH]c(=O)n(-c3ccccc3)c2=O)C2C=CC1n1c(=O)n(-c3ccccc3)c(=O)n12 (centres undefined)", "GI50", "> 100 µM (inactive)"),
    ("NCCCCN(CCCN)Cc1ccc2ccccc2c1", "GI50", "39.4 µM (inactive)"),
    ("CC1CC2C3CCC4=CC(=O)C=CC4(C)C3(F)C(O)CC2(C)C1(O)C(=O)CO.Cc1nnc(NS(=O)(=O)c2ccc(/N=N/c3cc(/N=N/c4ccc(S(=O)(=O)Nc5nnc(C)s5)cc4)c4c(NC(=O)C(Cl)Cl)cccc4c3OC(=O)C(Cl)Cl)cc2)s1", "GI50", "22.6 µM (inactive)"),
]

###

Test system: OVCAR-3
protocol details: NCI tumour cell line growth inhibition, 48 h
Activity calls are given as the source filed them. Rule as the data show it: active = GI50 up to about 1.1 µM and inactive = higher.
Catalogue of GI50 readings, one per entry.
measured attribute: GI50

# compound structure string, test target, measured result
rows = [
    ("Cc1cc(=O)oc2c(C)c(OCCCOc3ccc4c(C)cc(=O)oc4c3C)ccc12", "OVCAR-3", "> 100 µM (inactive)"),
    ("CCOC(=O)COc1cc(-c2ccccc2)nc2cc(F)ccc12", "OVCAR-3", "> 100 µM (inactive)"),
    ("O=c1[nH]c(=O)n([C@H]2CCCO2)cc1F", "OVCAR-3", "684 µM (inactive)"),
    ("C[n+]1cn(-c2ccc([N+](=O)[O-])cn2)c2ccccc21", "OVCAR-3", "> 100 µM (inactive)"),
]

###

System: UACC-62
protocol details: NCI tumour cell line growth inhibition, 48 h
Calls of active or inactive are those of the source. Cut-off read from the data, not from the text of the source: active = GI50 up to about 1.1 µM and inactive = higher.
Listing of entries alongside the reported GI50.
measured attribute: GI50

# compound, measured result
measured = [
    ("CCSc1nnc(-c2ccccc2)nc1Cc1ccc(OC)cc1", "> 100 µM (inactive)"),
    ("COC1=C(OC)C(=O)C(Cc2c(Cl)nc3sccn23)=C(C)C1=O", "5.2 µM (inactive)"),
    ("COC(=O)c1cc(CC(C)C)c2c(c1)[nH]c1ccccc12", "96.8 µM (inactive)"),
    ("Cc1cn(C2OC(CO)C(O)C2F)c(=O)[nH]c1=O (stereo unspecified)", "64.3 µM (inactive)"),
    ("Cc1cn([C@@H]2C[C@H](CO)[C@@H](O)C2)c(=O)[nH]c1=O", "> 100 µM (inactive)"),
    ("COc1ccc(-c2ccccc2)c(N/N=C2\\CCCNC2=O)c1", "49 µM (inactive)"),
]
